- target-entity: T1, peanut allergen Ara h 6 (peanut (Arachis hypogaea), UniProt Q647G9 22-145)
- T1 construct: also called recombinant Ara h 6
- T1 sequence (looked up): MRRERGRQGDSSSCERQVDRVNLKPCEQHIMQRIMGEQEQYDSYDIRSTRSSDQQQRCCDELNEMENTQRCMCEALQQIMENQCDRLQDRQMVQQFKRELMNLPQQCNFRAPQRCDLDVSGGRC
- protocol: Phadia ImmunoCAP and/or ELISA and Western blot
property-label: binding result

human IgE mAb 15C2 (antibody, V domains shown, human IgE from hybridoma) VH: QVQLVQSESELKKPGASVKISCKASGYDLTKYAMNWVRQAPGQGLEWMGWINTNTAKPTYAQGFTGRFVFSLDTSVRTIYLEISNLKAEDTAIYYCSRDGSGASWGQGTLVTVSS VL: DIQMTQSPSTLSASVGDRVTITCRASQNIGRWLAWHQQKPGKAPKVLITKASNLESGVPSRFTGSGSGTDFTLTITSLQPDDFATYYCQQYTTYSGTFGQGTRVEIK: binds
human IgE mAb 21C10 (antibody, V domains shown, human IgE from hybridoma) VH: EVQLVESGGGLVKPGGSLRLSCAASGFILSRSSMSWVRQAPGKGLEWVSYISSTSSHIYYADSLKGRFTISRDNTENSVYLQMSSLRAEDTGVYYCARKTNGAWFLDLWGRGTLVTVSS VL: QSVLTQPPSVSGAPGQRVTISCTGSSSNIGAGSDVHWYQQFPGSAPHVLIYGNNQRPSGVPDRFSASKSGTSASLAITGLQADDEADYYCQSYDYDLSGSWVFGGGTKLTVL: binds
human IgE mAb 1A8 (antibody, V domains shown, human IgE from hybridoma) VH: QLQLQESGPGLVKPSETLSLTCSVSDDSISTPSYFWTWIRQPPGKGLEWIASIYYTGTTYYNPSLKSRVTLSVDTPKRQFFLRLSSVTAADTAVYYCARYLDYVWLRAFDVWGQGAMVTVSS VL: EIVLTQSPATLSLSPGERATLSCRASPSVGRFLAWYQQKPGQAPRLLIYDASQRATDIPARFSASGSGTDFTLTIDSLEPEDFAIYYCQHRSNWPVTFGGGTRVEIK: binds
human IgE mAb 20M10 (antibody, V domains shown, human IgE from hybridoma) VH: EVQLVESGGGLVKPGGSLRLSCTVSGFTFNMHSMNWVRQAPGKGLEWVSFISSTSTYIYYPDSVKGRFTVSRDNSKNSLYLQMTSLRAEDTAVYYCVRRGRGGAARALDNWGQGTLVTVSS VL: SYVLPQTPSLSVAPGQTATISCGGNNTGSKSVHWYQQKPGQAPLLVVYDNSDRPSGIPERFSGSNSGNTATLTLSRVEAEDEADYYCQVWDSTIDHVIFGGGTKLTVL: binds
